Target: HLA-B07:02 class I MHC molecule (human)
Experiment: competition with a radiolabeled reference peptide for purified MHC I, gel filtration; 'Affinity (nM)'
Settings: remark: other sources report otherwise
pIC50: −log10 of the molar value.

binder | pIC50
SLLNYLREM [BTK_C481S peptide …] | 6.06

From: patent US20220282217A1
